# Test system: Fibroblast
# assay-protocol: Multiplex assay against human fibroblast
# Assay type: toxicity, cell-based
# test-context: 12 h, 1 µM, compound concentration 1 uM, replicate 2
For each record, write down the corresponding Population Normal (%).
Answers are plain numbers, in %.

Field: example entries. Status: answers known.
{"columns": ["compound", "observed-result"],
 "data": [
  ["CCCCC[C@H](O)/C=C/[C@H]1[C@H](O)CC(=O)[C@@H]1CCCCCCC(=O)O", 95],
  ["OCCCNc1cc(-c2ccnc(Nc3cccc(Cl)c3)n2)ccn1", 93],
  ["CCCCCCNC(=O)Nc1ccc(S(=O)(=O)Nc2ccc(CCNC[C@H](O)COc3ccc(O)cc3)cc2)cc1", 96]
]}

Quick request: Population Normal (%) for each listed item, please.
1. Cc1cc(NC(=O)NCCN2CCC(O)(Cc3ccccc3)CC2)c2ccccc2n1
2. COc1cc2nc(N3CCN(C(=O)c4ccco4)CC3)nc(N)c2cc1OC.Cl [PRAZOSIN HYDROCHLORIDE]

[out]
90
95

###

Assign Population Mitochondria Different-Phenotype (%) to each entry below.
# Test system: Fibroblast
# assay-protocol: Multiplex assay against human fibroblast
# Assay type: toxicity, cell-based
# test-context: 24 h, 1 µM, compound concentration 1 uM, replicate 2
Answers are plain numbers, in %.

{"columns": ["compound", "units-text", "observed-result"],
 "data": [
  ["Cc1sc2c(c1C)C(c1ccc(Cl)cc1)=N[C@H](CC(=O)OC(C)(C)C)c1nnc(C)n1-2", "%", 5],
  ["Nc1nc(CC(=O)Nc2ccc(CCNC[C@H](O)c3ccccc3)cc2)cs1", "%", 7],
  ["Cc1cc(O)c(-c2ccc([C@@H](C)CN(C)C)cc2)c2c1[nH]c(=O)c1sccc12", "%", 10],
  ["CN(C)C/C=C/C(=O)Nc1ccc(C(=O)N2CCCC(Nc3ncc(Cl)c(-c4c[nH]c5ccccc45)n3)C2)cc1 (stereo not given)", "%", 10],
  ["Cc1cc(-c2ccc3c(c2)CC[C@H]3N2CC3(CCN(C(=O)Cc4cn5cc(C)sc5n4)CC3)C2)ncn1", "%", 5],
  ["Cc1ccc(OCC(O)C(C)NC(C)C)c2c1CCC2.Cl (stereo not given)", "%", 8],
  ["O=c1ccc2ccc(OCCCCN3CCN(c4cccc5sccc45)CC3)cc2[nH]1", "%", 14],
  ["O=c1nc2[nH]c3ccccc3nc-2c(=O)[nH]1", "%", 0]
]}

Quick batch: Population Mitochondria Different-Phenotype (%) for everything below.
1. COCCCN1CCC(NC(=O)c2cc(Cl)c(N)c3c2OCC3)CC1 [PRUCALOPRIDE]
2. Cc1nn(C)c2nc(NNC(=O)Nc3cc(Cl)nc(Cl)c3)cc(C(C)C)c12

[out]
4
6

###

# System: U2OS
# assay-protocol: Multiplex assay against U2OS
# Assay type: toxicity, cell-based
# test-context: human, 12 h, 10 µM, compound concentration 10 uM, replicate 2
Label t for high-side Population Mitochondria Different-Phenotype (%) (at or above 7%) and f for low-side Population Mitochondria Different-Phenotype (%) (below it).

{"columns": ["compound", "target-under-test", "group-label"],
 "data": [
  ["CSc1nc(NC2CCCC2)c([N+](=O)[O-])c(NC2CCCC2)n1 [GS-39783]", "U2OS", "f"],
  ["Nc1nc(-c2ccco2)c2cnn(Cc3ccccc3F)c2n1", "U2OS", "f"],
  ["CC(C)(C)c1ccc(CSc2cnn(C(C)(C)C)c(=O)c2Cl)cc1 [PYRIDABEN]", "U2OS", "f"],
  ["Cc1cc(-c2ccc3c(c2)CC[C@H]3N2CC3(CCN(C(=O)Cc4cn5cc(C)sc5n4)CC3)C2)ncn1 [PF-5190457]", "U2OS", "t"],
  ["COc1ccc2[nH]c(I)c(CCNC(C)=O)c2c1 [IODOMELATONIN]", "U2OS", "f"]
]}

[in] Say whether CN1CCN2c3ccccc3Cc3ccccc3C2C1.Cl (stereo not given) [MIANSERIN HYDROCHLORIDE] shows Population Mitochondria Different-Phenotype (%) of 7% or more.
[out] f

[in] Hi team, for N[C@](CC1c2ccccc2Oc2ccccc21)(C(=O)O)[C@H]1C[C@@H]1C(=O)O , is the recorded Population Mitochondria Different-Phenotype (%) at or above 7%?
[out] f

[in] Could you verify whether the entry CCCCC[C@H](O)/C=C/[C@H]1[C@H](O)CC(=O)[C@@H]1CCCCCCC(=O)O [ALPROSTADIL] shows Population Mitochondria Different-Phenotype (%) of no less than 7%?
[out] f
